Would you kindly list CC50 for each of these compounds?
Test: Cytotoxicity against human C8166 cells by MTT assay
Format: cell-based
Response body: numeric value in µM, unit text excluded.

CC50 reading for Cc1ccc(-n2cc(C(=O)O)c(=O)c3c(O)c(Cc4cccc(Cl)c4F)ccc32)cc1 : 194

O=C(O)c1cn(-c2ccccc2)c2ccc(Cc3cccc(Cl)c3F)c(O)c2c1=O yielded CC50 of 388

Record Cc1ccc(-n2cc(C(=O)O)c(=O)c3c(O)c(Cc4cccc(Cl)c4F)ccc32)cc1C . Reported CC50: 316

The reported CC50 of the compound O=C(O)c1cn(Cc2ccccc2F)c2ccc(Cc3cccc(Cl)c3F)c(O)c2c1=O was 44.9

// recorded CC50 for O=C(O)c1cn(Cc2ccc(F)c(F)c2)c2ccc(Cc3cccc(Cl)c3F)c(O)c2c1=O : 71.4

For this compound ( Cc1ccc(Cn2cc(C(=O)O)c(=O)c3c(O)c(Cc4cccc(Cl)c4F)ccc32)cc1 ), measured CC50 is 256

Measured CC50 of O=C(O)c1cn(-c2ccc(Br)cc2)c2ccc(Cc3cccc(Cl)c3F)c(O)c2c1=O : 85

In plain terms, O=C(O)c1cn(Cc2ccccc2)c2ccc(Cc3cccc(Cl)c3F)c(O)c2c1=O has a documented CC50 of 20.3

Lab note: measured CC50 of O=C(O)c1cn(Cc2ccccc2F)c2ccc(Cc3ccccc3F)c(O)c2c1=O was 67.1

Form field CC50, entry O=C(O)c1cn(Cc2ccccc2)c2ccc(Cc3ccccc3F)c(O)c2c1=O : 156

Data point: O=C(O)c1cn(Cc2ccc(F)cc2)c2ccc(Cc3cccc(Cl)c3F)c(O)c2c1=O ; CC50 = 65.8

The recorded CC50 for entry O=C(O)c1cn(Cc2cccc(F)c2)c2ccc(Cc3cccc(Cl)c3F)c(O)c2c1=O equals 69

// CC50 value for Cc1cccc(-n2cc(C(=O)O)c(=O)c3c(O)c(Cc4cccc(Cl)c4F)ccc32)c1 : 71.5

Where do these numbers come from? They come from ChEMBL document CHEMBL1817559.
